Molecular target: rhuMAb2H7
Conditions: apparent affinity; Method 2; peptide immobilized on streptavidin chip, 2H7-IgG injected, bivalent analyte model
The star is where a group is joined. Biotin = O=C1N[C@H]2[C@H](CS[C@H]2CCCCC(=O)*)N1
Readout Type: Kd (nM)
Note: unit nM is implicit; provide only the numeric part.

Below, each entry is followed by its recorded Kd result.
Substance: Biotin-FIRAHTPYINIYNCEPANPSEKNSPSTQYCYSGGK(Biotin)-NH2 (cysteine pairing not given here) [Bis-CD20-35mer]
Kd, nM: 500
//
Substance: Biotin GKISHFLKMESLNFIRAHTPYINIYNCEPANPSEKNSPSTQYCYSIQSGGK (Biotin)-amide [Bis-CD20-51mer]
Kd, nM: 110

Entry Biotin-GKISHFLKMESLNFIRAHTPYINIYNCEPANPSEKNSPSTQYCYSIQSGGK-NH2 (cysteine pairing not given here) [Mono-CD20-51 mer] : Kd on rhuMAb2H7 = 130
